The measurements presented in this section are drawn from ChEMBL document CHEMBL1121460.

Reported Ki values follow for various compounds
Experimental target: Opioid receptor (Rattus norvegicus, UniProt P33533+P34975+P33535)
Assay remarks: Tested for Opioid receptors affinity determined by the capacity to displace bound, radiolabeled dihydromorphine from rat brain homogenates.
Express it in µM; write the number only.

A selection of reference data follows.
- Compound: "CCCCCN1CCC2(CC1)c1cc(O)ccc1C(C)(C)OC2CC (centres undefined)"
  Experimental target: "Opioid receptor (Rattus norvegicus, UniProt P33533+P34975+P33535)"
  Recorded result: 2
- Compound: "CCCCCN1CCC2(CC1)c1cc(O)ccc1C(C)(CC)OC2CC (centres undefined)"
  Experimental target: "Opioid receptor (Rattus norvegicus, UniProt P33533+P34975+P33535)"
  Recorded result: 5
- Compound: "C=CCN1CCC2(CC1)c1cc(O)ccc1C(C)(C)OC2CC (centres undefined)"
  Experimental target: "Opioid receptor (Rattus norvegicus, UniProt P33533+P34975+P33535)"
  Recorded result: 5

// switching to the query compound
For reference, reported Ki for CCC1OC(C)(C)c2ccc(O)cc2C12CCN(C)CC2 (centres undefined) stands at 10

###

Assay remarks: Lethal dose in monkeys
Format: toxicity, organism-based
Condition set: cercopithecidae, in vivo
Endpoint label: LD50 (mg/kg)
Express it in mg/kg; write the number only.

For reference, reported LD50 for CCCCCN1CCC2(CC1)c1cc(O)ccc1C(C)(C)OC2CC (stereo unspecified) stands at 80

###

Species on record: Mus musculus
Assay remarks: Evaluated for analgesic activity in mice using hot plate method
Assay type: functional
Endpoint label: ED50

A selection of reference data follows.
- Compound: "CCCCCN1CCC2(CC1)c1cc(O)ccc1C(C)(C)OC2CC (stereo not given)"
  Endpoint label: "ED50"
  Recorded result: "> 30 mg/kg"
- Compound: "CCC(=O)C1(c2cccc(O)c2)CCN(C)CC1"
  Endpoint label: "ED50"
  Recorded result: "0.8 mg/kg"
- Compound: "CCCCCN1CCC2(CC1)c1cc(O)ccc1C(C)(CC)OC2CC (stereo not given)"
  Endpoint label: "ED50"
  Recorded result: "> 30 mg/kg"

For reference, reported ED50 for CCC1OC(C)(C)c2ccc(O)cc2C12CCN(C)CC2 (stereo not given) stands at > 30 mg/kg

For reference, reported ED50 for C=CCN1CCC2(CC1)c1cc(O)ccc1C(C)(C)OC2CC (stereo not given) stands at > 30 mg/kg
